test system: Canis familiaris; assay: Increasing effect on vertebral blood flow in anesthetized dogs compared to the effect of trapidil; type: functional, Canis lupus familiaris
Measurement name: Vertebral blood flow
Answers are plain numbers.

Example results:
INSERT INTO assay_data (smiles_record, target_entity, value_reported) VALUES
  ('O=S(=O)(NCCNC1CCCCC1)c1cccc2cnccc12', 'Canis familiaris', 1.4),
  ('CCCCNCCNS(=O)(=O)c1cccc2cnccc12', 'Canis familiaris', 4.6),
  ('NCCCCNS(=O)(=O)c1cccc2cnccc12', 'Canis familiaris', 4.2),
  ('CCNCCNS(=O)(=O)c1cccc2cnccc12', 'Canis familiaris', 4.2),
  ('O=S(=O)(NCCNCc1ccccc1Cl)c1cccc2cnccc12', 'Canis familiaris', 1.5),
  ('CC(C)N(CCN)S(=O)(=O)c1cccc2cnccc12', 'Canis familiaris', 3.3),
  ('CNCCNS(=O)(=O)c1cccc2cnccc12', 'Canis familiaris', 3.7),
  ('O=S(=O)(NCCNCc1cccc(Cl)c1)c1cccc2cnccc12', 'Canis familiaris', 0.26);

Consider the following items and state reported Vertebral blood flow for each.
1. CCCCCCCCN(CCN)S(=O)(=O)c1cccc2cnccc12
2. NCCNS(=O)(=O)c1cccc2cnccc12
3. O=S(=O)(NCCNCCc1ccccc1)c1cccc2cnccc12
4. CCCCCNCCNS(=O)(=O)c1cccc2cnccc12

RESULT:
1. 0.92
2. 1.8
3. 0.31
4. 2.4
